Taken from the RNAGym collection of RNA variant scans (doi:10.7554/elife.80360).

B1: HDV Ribozyme (parent)
chain: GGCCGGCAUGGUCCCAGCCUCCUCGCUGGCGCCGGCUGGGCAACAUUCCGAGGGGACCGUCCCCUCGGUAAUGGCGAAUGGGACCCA

variants of: B1; assay: self-cleavage, relative activity (ratio to wild type); higher = more cleavage; co-transcriptional
endpoint_label: self-cleavage

variant_id="U27C C61A" endpoint_label=self-cleavage observed_value=0.898
variant_id="G29A U69C" endpoint_label=self-cleavage observed_value=0.131
variant_id="G68A A78U" endpoint_label=self-cleavage observed_value=0.277
variant_id="G52U G80A" endpoint_label=self-cleavage observed_value=0.528
variant_id="G11C G29U" endpoint_label=self-cleavage observed_value=0.0225
variant_id="C64U A87U" endpoint_label=self-cleavage observed_value=0.804
variant_id="C7A U79G" endpoint_label=self-cleavage observed_value=0.192
variant_id="C4U U46G" endpoint_label=self-cleavage observed_value=0.277
variant_id="G29U A42U" endpoint_label=self-cleavage observed_value=0.102
variant_id="U9C C84A" endpoint_label=self-cleavage observed_value=0.65
variant_id="C62G G82C" endpoint_label=self-cleavage observed_value=0.204
variant_id="C62A C75U" endpoint_label=self-cleavage observed_value=0.108
variant_id="G25A U79A" endpoint_label=self-cleavage observed_value=0.0437
variant_id="G34A C75A" endpoint_label=self-cleavage observed_value=0.107
variant_id="C48G C49G" endpoint_label=self-cleavage observed_value=0.906
variant_id="G73C G81C" endpoint_label=self-cleavage observed_value=0.0292
variant_id="C22U G50A" endpoint_label=self-cleavage observed_value=0.745
variant_id="C4G C26U" endpoint_label=self-cleavage observed_value=0.684
variant_id="G55U C62A" endpoint_label=self-cleavage observed_value=0.973
variant_id="C7A C48U" endpoint_label=self-cleavage observed_value=0.542
variant_id="G31C A42G" endpoint_label=self-cleavage observed_value=0.0755
variant_id="U9C G67A" endpoint_label=self-cleavage observed_value=1.12
variant_id="U27G G34C" endpoint_label=self-cleavage observed_value=0.0692
variant_id="C49G C86G" endpoint_label=self-cleavage observed_value=0.587
variant_id="A16G G73C" endpoint_label=self-cleavage observed_value=0.431
variant_id="C49U C66G" endpoint_label=self-cleavage observed_value=0.892
variant_id="G52A G74C" endpoint_label=self-cleavage observed_value=0.133
variant_id="C18A C30G" endpoint_label=self-cleavage observed_value=0.0573
variant_id="C3A C30G" endpoint_label=self-cleavage observed_value=0.0166
variant_id="C21G G25A" endpoint_label=self-cleavage observed_value=0.185
variant_id="A45G U69C" endpoint_label=self-cleavage observed_value=0.72
variant_id="C63U C85G" endpoint_label=self-cleavage observed_value=0.959
variant_id="C61G G74A" endpoint_label=self-cleavage observed_value=0.429
variant_id="C26A G73A" endpoint_label=self-cleavage observed_value=0.89
variant_id="C26G G82A" endpoint_label=self-cleavage observed_value=0.813
variant_id="C63A G82C" endpoint_label=self-cleavage observed_value=0.122
variant_id="C19G C21U" endpoint_label=self-cleavage observed_value=0.122
variant_id="C22U A43G" endpoint_label=self-cleavage observed_value=0.116
variant_id="C15G U27G" endpoint_label=self-cleavage observed_value=0.104
variant_id="C19G G39C" endpoint_label=self-cleavage observed_value=0.0978
variant_id="C32G A51G" endpoint_label=self-cleavage observed_value=0.0665
variant_id="U37G U60A" endpoint_label=self-cleavage observed_value=0.0504
variant_id="A77G A87C" endpoint_label=self-cleavage observed_value=0.735
variant_id="G11U C21A" endpoint_label=self-cleavage observed_value=0.0329
variant_id="G34C C36A" endpoint_label=self-cleavage observed_value=0.0707
